Test system: SNB-19
Assay: NCI tumour cell line growth inhibition, 48 h
Activity calls are given as the source filed them. Cut-off read from the data, not from the text of the source: active = GI50 up to about 1.1 µM and inactive = higher.
Readout: GI50

Solved cases (10 shown):
COc1cc2cc(C(=O)N3CC(COS(C)(=O)=O)c4ccc(NC(=O)OCc5ccccc5)cc43)[nH]c2c(OC)c1OC (centres undefined)    > 100 µM (inactive)
FC(F)(F)c1nc(-c2ccccc2)oc1Sc1oc(-c2ccccc2)nc1C(F)(F)F    87.3 µM (inactive)
C=C(C)COC1CCCCO1 (centres undefined)    > 100 µM (inactive)
CCCCC#COP(=O)(OCC)OCC    > 100 µM (inactive)
CCOC(=O)c1cc2cc3c4c(c2oc1=O)CCCN4CCC3    42.6 µM (inactive)
CCCCCC1C2C(=O)NC(=O)C1C(=O)NC2=O (centres undefined)    > 100 µM (inactive)
CCC1=NC(C(F)(F)F)(C(F)(F)F)N=C(/N=C(/N)N(C)C(C(C)C)P(=O)(OC(C)C)OC(C)C)O1 (centres undefined)    > 100 µM (inactive)
COC12C=CC(CC1)C(C)(C)C2=O (centres undefined)    > 100 µM (inactive)
CC(C)(C)OC(=O)C1=C(C(=O)OC(C)(C)C)SC2(S1)C(C(=O)OC(C)(C)C)=C(C(=O)OC(C)(C)C)Sc1c2ssc1=O    > 100 µM (inactive)
O=C1COCCN1C(=O)c1ccccc1Cl    > 100 µM (inactive)

stdin: Output GI50 of COc1ccc(-c2cc(=O)c3c(O)c(OC)c(OC)c(OC)c3o2)cc1OC
stdout: > 100 µM (inactive)

stdin: Given N#Cc1nn(C2OC(COC(=O)c3ccccc3)C(OC(=O)c3ccccc3)C2OC(=O)c2ccccc2)c2nc[nH]c(=O)c12 (centres undefined) , respond with its GI50.
stdout: 72.8 µM (inactive)

stdin: Dear colleague, please send me the reported GI50 for COc1ccc(/C=C/C(=N/NC(=O)N/N=C(/C=C/c2ccc(OC)cc2)C(C)C)C(C)C)cc1 when you can.
stdout: > 100 µM (inactive)

stdin: Note GI50 for the compound shown: O=C[C@@H](CO)O[C@H](C=O)c1c[nH]c(=O)[nH]c1=O
stdout: 129 µM (inactive)

stdin: Please give measured GI50 of the following entry: CCOC(=O)c1cn2c(n1)sc1cc(Cl)ccc12
stdout: 8.28 µM (inactive)
